// data source = paper PMC4300089

system_tested: PKA-Iβ (Homo sapiens, UniProt P31321)
Sequence (P31321 whole entry): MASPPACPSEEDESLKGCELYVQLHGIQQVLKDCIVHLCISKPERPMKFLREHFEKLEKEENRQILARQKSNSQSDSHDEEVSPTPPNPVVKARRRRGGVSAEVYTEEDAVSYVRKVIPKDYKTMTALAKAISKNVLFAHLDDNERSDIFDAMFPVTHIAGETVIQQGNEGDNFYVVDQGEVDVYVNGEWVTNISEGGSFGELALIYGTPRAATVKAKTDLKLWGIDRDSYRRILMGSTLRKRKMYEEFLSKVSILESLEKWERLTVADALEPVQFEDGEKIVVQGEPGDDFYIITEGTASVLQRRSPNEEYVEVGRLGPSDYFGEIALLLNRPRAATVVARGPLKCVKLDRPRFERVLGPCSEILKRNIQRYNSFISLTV
test_description: PKA activity assay, PKA-Iβ
measurement_parameters: PKA-Iβ; read-out: Kact
The entries below come with measured EC50 values attached.
Lab book: enter the figure in µM, no units written.

| molecule | measured_quantity | numeric_readout |
| --- | --- | --- |
| COC1C2OP(=O)(O)OCC2OC1n1c(Sc2ccc(Cl)cc2)nc2c(N)ncnc21 [D-007, 8-pCPT-2′-O-Me-cAMP, reference compound] | EC50 | 18 |

From here, focus on the item given below.
Requested read-out: EC50. Entry: "Nc1ncnc2c1nc(SCc1ccccc1)n2[C@@H]1O[C@@H]2CO[P@](O)(=S)O[C@H]2[C@H]1O"
0.29
